Values from patent US7868026B2

- SYSTEM_TESTED: CYP3A4 (Homo sapiens)
- Sequence (P08684 whole entry): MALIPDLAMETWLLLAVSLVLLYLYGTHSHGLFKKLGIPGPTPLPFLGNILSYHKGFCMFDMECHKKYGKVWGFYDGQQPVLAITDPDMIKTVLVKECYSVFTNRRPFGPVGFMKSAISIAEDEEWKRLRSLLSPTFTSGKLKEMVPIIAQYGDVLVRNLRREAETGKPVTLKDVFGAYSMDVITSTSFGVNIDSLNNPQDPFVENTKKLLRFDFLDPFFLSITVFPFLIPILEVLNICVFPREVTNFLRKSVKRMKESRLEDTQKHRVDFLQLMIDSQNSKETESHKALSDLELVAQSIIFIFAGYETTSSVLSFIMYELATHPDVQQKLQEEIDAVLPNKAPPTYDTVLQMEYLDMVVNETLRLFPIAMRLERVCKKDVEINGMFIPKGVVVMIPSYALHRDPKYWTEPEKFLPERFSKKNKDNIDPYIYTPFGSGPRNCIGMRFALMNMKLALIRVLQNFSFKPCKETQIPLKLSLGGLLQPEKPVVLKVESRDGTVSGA
- EXPERIMENTAL_DETAILS: Determination of IC50 against CYP3A4 by measurement of inhibition of midazolam metabolism (human liver microsomes, 1-hydroxymidazolam by LC-MS/MS)
- Type: biochemical
- Parameters: 0.1 mg/mL human liver microsomes
- STUDY_CONDITIONS: 2 μM midazolam, 0.1 mg/mL human liver microsomes
pIC50: −log10 of the molar value.
MEASURE_NAME: pIC50

[a] CCOc1ccncc1NS(=O)(=O)c1ccccc1C(=O)N(C)Cc1ccc(F)cc1
[b] COc1cncc(NS(=O)(=O)c2ccccc2C(=O)NCc2ccc(S(C)(=O)=O)cc2)c1
[c] COc1cncc(NS(=O)(=O)c2ccccc2C(=O)NCCc2cccnc2)c1
Q: List the molecules shown above again, sorted by falling pIC50 values. Lab note: final answer is the ordered label list.
A: a, c, b
(a: 7.59, c: 7.37, b: 7.17)
